Overview of recorded log10 of MIC for various molecules
- System: Staphylococcus aureus
- Assay Name: Antibacterial activity against methicillin-resistant Staphylococcus aureus S22 measured after overnight incubation by broth double-dilution method
- Type: functional
Measured Metric: log10 of MIC (log10 of the value in µg/mL)

[[record]]
smiles_str = "O=c1c2ccccc2sn1-c1ccc(F)cc1"
measured_metric = "log10 of MIC"
endpoint_value = 0.30

[[record]]
smiles_str = "O=c1c2ccccc2sn1C1CCCCCCC1"
measured_metric = "log10 of MIC"
endpoint_value = 0.89

[[record]]
smiles_str = "O=c1c2ccccc2sn1CCCc1ccccc1"
measured_metric = "log10 of MIC"
endpoint_value = 0.59

[[record]]
smiles_str = "O=c1c2ccccc2sn1C1CCCC1"
measured_metric = "log10 of MIC"
endpoint_value = 0.89

[[record]]
smiles_str = "CC(C)c1cccc(-n2sc3ccccc3c2=O)c1"
measured_metric = "log10 of MIC"
endpoint_value = 0.00

[[record]]
smiles_str = "O=c1c2ccccc2sn1CCc1ccccc1"
measured_metric = "log10 of MIC"
endpoint_value = 0.59

[[record]]
smiles_str = "O=c1c2ccccc2sn1-c1ccc(Br)cc1"
measured_metric = "log10 of MIC"
endpoint_value = 0.30

[[record]]
smiles_str = "COc1cc(OC)cc(-n2sc3ccccc3c2=O)c1"
measured_metric = "log10 of MIC"
endpoint_value = -0.30

[[record]]
smiles_str = "NCC[C@H](O)C(=O)N[C@@H]1C[C@H](N)[C@@H](O[C@H]2O[C@H](CN)[C@@H](O)[C@H](O)[C@H]2O)[C@H](O)[C@H]1O[C@H]1O[C@H](CO)[C@@H](O)[C@H](N)[C@H]1O"
measured_metric = "log10 of MIC"
endpoint_value = 0.89

[[record]]
smiles_str = "CC(C)CCn1sc2ccccc2c1=O"
measured_metric = "log10 of MIC"
endpoint_value = 0.89

[[record]]
smiles_str = "CCCCCCCCn1sc2ccccc2c1=O"
measured_metric = "log10 of MIC"
endpoint_value = 0.00

[[record]]
smiles_str = "O=c1c2ccccc2sn1C1CCCCCC1"
measured_metric = "log10 of MIC"
endpoint_value = 0.59

[[record]]
smiles_str = "O=c1c2ccccc2sn1-c1cccc2ccccc12"
measured_metric = "log10 of MIC"
endpoint_value = 0.00

[[record]]
smiles_str = "Cc1cc(C)cc(-n2sc3ccccc3c2=O)c1"
measured_metric = "log10 of MIC"
endpoint_value = 0.59

[[record]]
smiles_str = "CCCCCCCCCCCCn1sc2ccccc2c1=O"
measured_metric = "log10 of MIC"
endpoint_value = 0.59

[[record]]
smiles_str = "C#Cc1ccc(-n2sc3ccccc3c2=O)cc1"
measured_metric = "log10 of MIC"
endpoint_value = 0.30

[[record]]
smiles_str = "CCCCCn1sc2ccccc2c1=O"
measured_metric = "log10 of MIC"
endpoint_value = 0.59

[[record]]
smiles_str = "O=c1c2ccccc2[se]n1-c1ccccc1"
measured_metric = "log10 of MIC"
endpoint_value = 0.00

[[record]]
smiles_str = "CC(C)Cn1sc2ccccc2c1=O"
measured_metric = "log10 of MIC"
endpoint_value = 0.89

[[record]]
smiles_str = "CC(C)(C)n1sc2ccccc2c1=O"
measured_metric = "log10 of MIC"
endpoint_value = 1.19

[[record]]
smiles_str = "O=c1c2ccccc2sn1-c1ccccn1"
measured_metric = "log10 of MIC"
endpoint_value = 0.89

[[record]]
smiles_str = "CC(C)c1ccc(-n2sc3ccccc3c2=O)cc1"
measured_metric = "log10 of MIC"
endpoint_value = -0.30

[[record]]
smiles_str = "CCCCCCn1sc2ccccc2c1=O"
measured_metric = "log10 of MIC"
endpoint_value = 0.59

[[record]]
smiles_str = "O=c1c2ccccc2sn1-c1ccc(Cl)cc1"
measured_metric = "log10 of MIC"
endpoint_value = 0.30

[[record]]
smiles_str = "O=c1c2ccccc2sn1C1CCCCC1"
measured_metric = "log10 of MIC"
endpoint_value = 0.89


meta.source: ChEMBL document CHEMBL3864121
